measured_target: T1, cynomolgus monkey (cyno) TSLP (cynomolgus monkey, UniProt A0A7N9CAT7 29-159)
T1 construct: also called cTSLP; cynomolgus TSLP
T1 sequence (A0A7N9CAT7 entry or part of it): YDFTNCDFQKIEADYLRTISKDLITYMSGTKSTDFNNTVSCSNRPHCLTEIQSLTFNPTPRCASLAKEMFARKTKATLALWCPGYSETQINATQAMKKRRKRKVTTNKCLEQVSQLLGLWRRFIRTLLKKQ
experiment_description: SPR
reported_metric: koff (s⁻¹)
Numeric only. Scale: s⁻¹

Item under review: BDG38.075 (antibody, V domains shown, IgG1) VH: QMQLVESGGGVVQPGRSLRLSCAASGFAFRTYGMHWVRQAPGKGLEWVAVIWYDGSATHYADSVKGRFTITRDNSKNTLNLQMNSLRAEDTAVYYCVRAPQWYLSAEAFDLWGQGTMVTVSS VL: SYVLTQPPSVSVAPGETATITCGGNLIGAYLVHWYQQKPGQAPVLVIYDDVDRPARIPERFSGSNSGNTATLTISRVEAGDEADYYCQVWDHDTNTMVFGGGTKLTVL . Reported koff?
7.59e-06

Item under review: BDG38.116 (antibody, V domains shown, IgG1) VH: QMQLVESGGGVVQPGRSLTLSCAASGFEFRTYGMHWVRQAPGKGLEWVAVIWDDGSNTHYADSVKGRFTITRDNSKNTLNLQMNSLRVEDTAVYYCVRAPQWYLTAEAFDLWGQGTMVTVSS VL: SYVLTQPPSVSVAPGQTATITCGGNLIGARLVHWYQQKPGQAPVLVIYDDSDRPSRIPERFSGSNIGNTATLTIERVEAGDEADYYCQVWDYYSDTMVFGGGTKLTVL . Reported koff?
0.000386

Item under review: BDG38.139 (antibody, V domains shown, IgG1) VH: QMQLVESGGGVVQPGRSLRLSCAASGFAFRTYGMHWVRQAPGKGLEWVAVIWDDGSNTHYADSVKGRFTITRDNSKNTLNLQMNSLRAEDTAVYYCVRAPQWYLSAEAFDLWGQGTMVTVSS VL: SYVLTQPPSVSVAPGETATITCGGNMIGAYLVHWYQQKPGQAPLLVIYDDVDRPARIPERFSGSNSGNTATLTISRVEAGDEADYYCQVWDHNSDHMVFGGGTKLTVL . Reported koff?
1.55e-05
